Target: Pyruvate dehydrogenase kinase (Rattus norvegicus, UniProt Q63065+A6IPZ9+Q64536+O54937)
Test: Inhibitory activity tested against Pyruvate Dehydrogenase Kinase (PDHK) receptor from rats.
Format: protein assay
readoutName: IC50

# count of solved cases: 8
| compound | testTarget | readoutName | result |
| --- | --- | --- | --- |
| O=C(Nc1ccccc1Cl)C(Cl)Cl | Pyruvate dehydrogenase kinase (Rattus norvegicus, UniProt Q63065+A6IPZ9+Q64536+O54937) | IC50 | 47 µM |
| CCCC1CCN(C(=O)[C@](C)(O)C(F)(F)F)CC1 | Pyruvate dehydrogenase kinase (Rattus norvegicus, UniProt Q63065+A6IPZ9+Q64536+O54937) | IC50 | 75 µM |
| C[C@@H]1CN(C(=O)[C@@](C)(O)C(F)(F)F)CCN1C(=O)C1CCCCC1 | Pyruvate dehydrogenase kinase (Rattus norvegicus, UniProt Q63065+A6IPZ9+Q64536+O54937) | IC50 | 0.064 µM |
| Cc1cc(C)c(S(=O)(=O)N2CCN(C(=O)[C@@](C)(O)C(F)(F)F)C[C@H]2C)c(C)c1 | Pyruvate dehydrogenase kinase (Rattus norvegicus, UniProt Q63065+A6IPZ9+Q64536+O54937) | IC50 | 0.039 µM |
| C[C@@H]1CN(C(=O)[C@@](C)(O)C(F)(F)F)[C@@H](C)CN1/C(=N/C#N)Oc1ccccc1 | Pyruvate dehydrogenase kinase (Rattus norvegicus, UniProt Q63065+A6IPZ9+Q64536+O54937) | IC50 | 0.0091 µM |
| C[C@@H]1CN(C(=O)[C@@](C)(O)C(F)(F)F)CCN1S(=O)(=O)c1cccc2ccccc12 | Pyruvate dehydrogenase kinase (Rattus norvegicus, UniProt Q63065+A6IPZ9+Q64536+O54937) | IC50 | 0.025 µM |
| C[C@@H]1CN(Cc2ccccc2)[C@@H](C)CN1C(=O)[C@@](C)(O)C(F)(F)F | Pyruvate dehydrogenase kinase (Rattus norvegicus, UniProt Q63065+A6IPZ9+Q64536+O54937) | IC50 | > 300 µM |
| COC(=O)N1CCC(Cc2ccccc2)CC1 | Pyruvate dehydrogenase kinase (Rattus norvegicus, UniProt Q63065+A6IPZ9+Q64536+O54937) | IC50 | 1000 µM |

The compound CC1CCCCN1C(=O)[C@@](C)(O)C(F)(F)F (stereo not given in full) showed IC50 equal to 2 µM

Form: compound = C[C@@H]1CN(C(=O)[C@@](C)(O)C(F)(F)F)[C@@H](C)CN1C(=O)C1CCCCC1 ; IC50 = 0.013 µM
